Metric: melting point (°C)

Below are worked cases with known answers.
O=C(O)c1ccc2c(c1)C(=O)c1cc(C(=O)O)ccc1-2; 407
O=C(C1=NN(c2ccccc2)C2C(=O)N(c3ccc([N+](=O)[O-])cc3)C(=O)C12)c1ccc(Br)cc1 (stereo not given); 151
Cc1cc(C)c(CC#N)c(C)c1; 78.5

(A) Cc1ccc(Br)c(C)c1
(B) Nc1c(Br)cc(C(F)(F)F)cc1[N+](=O)[O-]
Query: Please choose the item with the lower melting point value from this pair: A and B Write down the label attached to your selection.
Reply: A
(A: -17 °C, B: 71 °C)

(P) N#C/C(=C/c1cccc(O)c1)c1nc2ccccc2c(=O)[nH]1
(Q) CCCCCCCCCCCCCCCC(N)=O
(R) O=C(Nc1ccc([N+](=O)[O-])cc1)c1ccccc1
(S) O=S(=O)(Cl)c1cccc2ccccc12
Query: Hi! Can you put these in order of melting point, lowest number first? Would you mind listing the labels in the order requested?
Reply: S, Q, R, P

(P) Cc1nn(C)c2ncc3c(=O)[nH]n(C)c3c12
(Q) CCCCc1ccc(NC(=O)c2ccc(CC)cc2)cc1
(R) CCCCCCCCCCCC(=O)OCCOC(=O)CCCCCCCCCCC
Query: Sort low-to-high on melting point, please. Use the labels to give the requested order.
Reply: R, Q, P
(R: 56.6 °C, Q: 117 °C, P: 300 °C)

(a) S=c1nnc(-c2ccccc2)c(Nc2ccc(Cl)cc2)[nH]1
(b) Cc1ccc(C(=O)C2=NOC3C(=O)N(c4ccc(O)cc4)C(=O)C23)cc1 (stereo not given)
Query: Which record shows the lower melting point: the first, a , or the second, b ? Provide the label of your selected option as the answer.
Reply: b
(b: 120 °C, a: 314 °C)

(1) COc1ccccc1-c1ccc(C=NO)o1
(2) CCNc1nc(Cl)nc(NCC(=O)OCC)n1
Query: Given the listed items, does 1 or 2 have the lesser reported melting point? Mark your selection by writing its label.
Reply: 1
(1: 128 °C, 2: 228 °C)

* * *

Metric: melting point (°C)

In the examples that follow, each entry is paired with its recorded melting point.
O=C(C1=NOC2C(=O)N(c3cccc([N+](=O)[O-])c3)C(=O)C12)c1cccs1 (stereo not given); 164
CCCOC(=O)CCC(=O)OCCC; -5.9
NNC(N)=S; 183
CC(Cc1ccc(O)c(O)c1)(NN)C(=O)O (stereo not given); 208
CC(=O)Oc1cccc(O)c1; 55
OC1(C#CC#CC2(O)CCCCC2)CCCCC1; 175
N#CC(Br)c1ccccc1 (stereo not given); 29
CC1CCNCC1; 5
Cc1cc(C)cc(O[Si]23OCCN(CCO2)CCO3)c1; 220
CC(=O)OC1CCC2C3CCC45OC4C(=O)C=CC5(O)C3CCC12C (stereo not given); 178

(A) Nc1cc(Cl)ccc1S
(B) O=C1c2ccccc2C(=O)N1c1n[nH]c2ncccc12
(C) Cc1ccc2c(ccc3cc4ccccc4cc32)c1
(D) Cc1ccccc1Oc1ccccc1
(E) CC(=O)c1ccsc1
Query: Sort (5 compounds) by melting point: min first. Write the labels in rank order as requested.
Reply: D, E, A, C, B

* * *

Metric: melting point (°C)

Solved entries (count: 3):
Cc1cc(O)c(C)c(C)c1O; 173
OOC1CCCCC1; -20
Cc1cnc(C(=O)O)cn1; 166

(I) CC(C)(C)c1ccc(C2CCC3(CC2)Cc2ccc(C(=O)Nc4ccccc4OCCCC(=O)O)cc2C3)cc1 (stereo not drawn)
(II) Cn1c(=S)sc2ccccc21
Query: Given the listed records, identify the one among I and II with higher melting point. # answer = label of selected item
Reply: I

(a) CC1CCSCC1
(b) N=C1NC(=O)C(=NNc2cccc([N+](=O)[O-])c2)S1
Query: // which entry reports the smaller melting point, a or b ? Lab log: write the label of the selected item as the result.
Reply: a

(1) Cc1nc(O)cc(O)n1
(2) CC(=O)N1N=C(c2ccc3ccccc3c2)CC1c1ccccc1Cl (stereo not drawn)
Query: Given 1 and 2 , report the one with the higher recorded melting point. Answer by stating the label of the chosen item.
Reply: 1
(1: 360 °C, 2: 173 °C)
